# experimental.target: T1, human IL6R (human, UniProt P08887 20-358, limits assumed)
# T1 construct: Antigen of the Biacore experiments
# T1 sequence (looked up): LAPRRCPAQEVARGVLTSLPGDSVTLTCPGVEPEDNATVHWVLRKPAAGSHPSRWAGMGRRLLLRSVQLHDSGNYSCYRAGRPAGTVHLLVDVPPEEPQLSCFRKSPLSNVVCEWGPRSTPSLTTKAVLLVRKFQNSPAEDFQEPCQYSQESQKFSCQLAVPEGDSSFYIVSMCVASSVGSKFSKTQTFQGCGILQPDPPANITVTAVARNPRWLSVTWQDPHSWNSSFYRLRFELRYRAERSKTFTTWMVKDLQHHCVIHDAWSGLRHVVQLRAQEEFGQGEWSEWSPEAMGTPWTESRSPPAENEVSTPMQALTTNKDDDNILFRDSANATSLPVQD
# protocol.details: SPR (Biacore), periplasmic extract
endpoint: koff
Phrase the answer as number then unit, nothing more needed.

**Query** I have this binder here, 32C9PMP1_E7 (VHH, name in Kabat numbering, Humanized 32C9 variant) VHH: EVQLVESGGGLVQAGGSLRLSCAASGFTFDDYDIGWFRQAPGKGREGVSGISSSDGNTYYADSVKGRFTISSDNAKNTLYLQMNSLKAEDTAVYYCAAEPPDSSWYLDGSPEFFKYWGQGTLVTVSS , and I need its recorded koff.
**Result** 0.000187 s⁻¹

**Query** Also, 32C9PMP2_A7 (VHH, name in Kabat numbering, Humanized 32C9 variant) VHH: EVQLVESGGGLVQAGGSLRLSCAASGFTFSDYDIGWVRQAPGKGREGVSGISSSDGNTYYADSVKGRFTISRDNAKNTLYLQMNSLKAEDTAVYYCAAEPPDSSWYLDGSPEFFKYWGQGTLVTVSS please.
**Result** 0.000792 s⁻¹

**Query** Next binder: 32C9PMP2_D10 (VHH, name in Kabat numbering, Humanized 32C9 variant) VHH: EVQLVESGGGLVQPGGSLRLSCAASGFTFSDYDIGWVRQAPGKELEGVSGISSSDGNTYYADSVKGRFTISSDNAKNTVYLQMNSLRPEDTAVYYCAAEPPDSSWYLDGSPEFFKYWGQGTLVTVSS
**Result** 0.00707 s⁻¹

State recorded koff for all listed binders.
1. 32C9PMP1_G5 (VHH, name in Kabat numbering, Humanized 32C9 variant) VHH: EVQLVESGGGLVQPGGSLRLSCAASGFTFDDYDIGWFRQAPGKELEGVSGISSSDGNTYYADSVKGRFTISRDNAKNTLYLQMNSLRPEDTAVYYCAAEPPDSSWYLDGSPEFFKYWGQGTLVTVSS
2. 32C9PMP2_B3 (VHH, name in Kabat numbering, Humanized 32C9 variant) VHH: EVQLVESGGGLVQAGGSLRLSCAASGFTFSDYDIGWFRQAPGKEREGVSGISSSDGNTYYADSVKGRFTISRDNAKNTVYLQMNSLKAEDTAVYYCAAEPPDSSWYLDGSPEFFKYWGQGTLVTVSS
3. 32C9PMP2_C3 (VHH, name in Kabat numbering, Humanized 32C9 variant) VHH: EVQLVESGGGLVQAGGSLRLSCAASGFTFSDYDIGWVRQAPGKEREWVSGISSSDGNTYYADSVKGRFTISSDNAKNTLYLQMNSLKAEDTAVYYCAAEPPDSSWYLDGSPEFFKYWGQGTQVTVSS
4. 32C9PMP1_A1 (VHH, name in Kabat numbering, Humanized 32C9 variant) VHH: EVQLVESGGGLVQAGGSLRLSCAASGFTFSDYDIGWVRQAPGKEREWVSGISSSDGNTYYADSVKGRFTISSDNAKNTLYLQMNSLRPEDTAVYYCAAEPPDSSWYLDGSPEFFKYWGQGTLVTVSS
5. 32C9PMP1_B3 (VHH, name in Kabat numbering, Humanized 32C9 variant) VHH: EVQLVESGGGLVQPGGSLRLSCAASGFTFDDYDIGWVRQAPGKELEGVSGISSSDGNTYYADSVKGRFTISSDNAKNTLYLQMNSLRPEDTAVYYCAAEPPDSSWYLDGSPEFFKYWGQGTLVTVSS

**Result**
1. 0.00116 s⁻¹
2. 0.000308 s⁻¹
3. 0.0138 s⁻¹
4. 0.00515 s⁻¹
5. 0.00346 s⁻¹
